Tested on: neonate tobacco budworm
Test: LD50 against neonate tobacco budworm, petri dish assay
Type: in vivo
Settings: Heliothis virescens; mean of two tests; mortality evaluated at 24 and 48 hours
Recorded LC50 by entry
Quick note: give the figure in µg/mL, leave out the unit.

• CCC1CCCC(OC2CCC(NC)C(C)O2)C(C)C(=O)C2=CC3C(C=CC4CC(OC5OC(C)C(O)C(OC)C5OC)CC43)C2CC(=O)O1 (stereo not shown) [N-demethyl-K, N-demethyl-A83543K] = 9.8

Query string: May I ask what LC50 has been recorded for COC1C(OC2CC3C=CC4C5CC(=O)OC(C)CCCC(OC6CCC(N(C)C)C(C)O6)C(C)C(=O)C5=CC4C3C2)OC(C)C(O)C1OC (stereo not shown) [A83543Y] ?
Result string: 20

Query string: Next molecule: CCC1CCCC(OC2CCC(N(C)C)C(C)O2)C(C)C(=O)C2=CC3C(C=CC4CC(OC5OC(C)C(O)C(OC)C5OC)CC43)C2CC(=O)O1 (stereo not shown) [A83543K]
Result string: 3.5

Query string: Also, CCC1CCCC(OC2CCC(N(C)C)C(C)O2)C(C)C(=O)C2=CC3C(C=C(C)C4CC(OC5OC(C)C(O)C(OC)C5OC)CC43)C2CC(=O)O1 (stereo not shown) [A83543O] please.
Result string: 1.4

Query string: Entry to check: CCC1CCCC(OC2CCC(N(C)C)C(C)O2)C(C)C(=O)C2=CC3C(C=CC4CC(OC5OC(C)C(O)C(OC)C5O)CC43)C2CC(=O)O1 (stereo not shown) [A83543U]
Result string: 22

###

inhibition at 50 ppm by entry:
Test system: Tobacco Budworm
Test: Mite/Insect Screen, tobacco budworm (TBW)
Format: in vivo
Details: Heliothis virescens, 144 h; 50 ppm (rate in parenthesis), 6 day
Provide only the numeric value, understood in %.

- CCC1CCCC(OC2CCC(N(C)C)C(C)O2)C(C)C(=O)C2=CC3C(C=CC4CC(OC5OC(C)C(O)C(OC)C5O)CC43)C2CC(=O)O1 (centres unmarked) [A83543U]: 100

Query string: Any idea what its inhibition at 50 ppm is? The compound is CCC1CCCC(OC2CCC(N(C)C)C(C)O2)C(C)C(=O)C2=CC3C(C=CC4CC(OC5OC(C)C(O)C(O)C5OC)CC43)C2CC(=O)O1 (centres unmarked) [A83543P]
Result string: 0

Query string: Next up: COC1C(OC2CC3C=CC4C5CC(=O)OC(C)CCCC(OC6CCC(N(C)C)C(C)O6)C(C)C(=O)C5=CC4C3C2)OC(C)C(O)C1OC (centres unmarked) [A83543Y]
Result string: 0

Query string: Then this compound: CCC1CCCC(OC2CCC(N(C)C)C(C)O2)C(C)C(=O)C2=CC3C(C=C(C)C4CC(OC5OC(C)C(O)C(O)C5OC)CC43)C2CC(=O)O1 (centres unmarked) [A83543W]
Result string: 0

Query string: Could you do the same for CCC1CCCC(OC2CCC(NC)C(C)O2)C(C)C(=O)C2=CC3C(C=CC4CC(OC5OC(C)C(O)C(OC)C5OC)CC43)C2CC(=O)O1 (centres unmarked) [N-demethyl-K, N-demethyl-A83543K] , please?
Result string: 100

Ref: patent US5670364A
